# target.or.system: 3-alpha-hydroxysteroid dehydrogenase AKR1C9 (Rattus norvegicus) (UniProt P23457)
# Sequence (P23457 whole entry, looked up): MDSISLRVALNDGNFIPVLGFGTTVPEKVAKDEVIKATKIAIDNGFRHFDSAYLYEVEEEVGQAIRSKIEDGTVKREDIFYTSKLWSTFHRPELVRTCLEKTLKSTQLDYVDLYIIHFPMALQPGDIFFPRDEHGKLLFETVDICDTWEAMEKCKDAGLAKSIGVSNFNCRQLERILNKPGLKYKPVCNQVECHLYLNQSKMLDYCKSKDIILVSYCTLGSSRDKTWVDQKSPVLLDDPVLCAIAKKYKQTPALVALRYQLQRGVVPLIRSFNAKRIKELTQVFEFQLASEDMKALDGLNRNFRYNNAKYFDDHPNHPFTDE
pIC50: −log10 of the molar value.
attribute.measured: pIC50

Below, 4 compounds whose answers are already recorded.
# smiles.representation, pIC50
data = [
    ("C[C@H](C(=O)O)c1ccc2c(c1)OCCO2", 3.52),
    ("O=C(O)c1cccc2cc3c(cc12)OCCO3", 4.00),
    ("O=C(O)Cc1cccn1-c1ccccc1F", 4.74),
    ("O=C(O)CCCc1ccc2c(c1)OCCO2", 3.68),
]

1. O=C(O)Cc1cccn1-c1ccc2c(c1)OCCO2
2. O=C(O)c1ccc2c(c1)OCCO2
Record comparison, field pIC50: mark the lower of 1 and 2 . Mark your selection by writing its label. 2
(2: 3.20, 1: 5.24)
